Where do the numbers come from? From patent US7683185B2.

Molecular target: rat liver HDAC
Experiment: HDAC activity assay with partially purified rat liver HDAC enzyme (MAL substrate)
Format: biochemical
Settings: rat liver HDAC; read-out: HDAC activity IC50, rat liver HDAC
EXPERIMENTAL_READOUT: pIC50
Field pIC50 (float): negative decimal logarithm of the concentration in molar.

Problem: Which pIC50 is reported for this compound? CC=CC=CC(=O)NO [hexa-2,4-dienic acid hydroxamide, reference compound]
Result: 6.10

----------
Biological target: rat liver HDAC
Assay: HDAC activity assay with partially purified rat liver HDAC enzyme (MAL substrate)
Format: biochemical
Settings: purified liver HDAC (Table 2); read-out: HDAC inhibitory activity Purified liver (IC50)
EXPERIMENTAL_READOUT: pIC50
Field pIC50 (float): negative decimal logarithm of the concentration in molar.

Problem: Which pIC50 is reported for this compound? O=C(/C=C/C=C/C[S+]([O-])c1ccc(Cl)cc1)NO (stereo not shown) [UCL 2002]
Result: 6.51

----------
Tested on: CEM cells
Assay: Percentage viability in CEM cells (3-day exposure)
Format: cell-based
Details: Homo sapiens, CCRF-CEM, 72 h, read-out: % viability (IC50) μM
EXPERIMENTAL_READOUT: IC50
Respond with the figure and its unit, in that order.

Problem: Which IC50 is reported for this molecule? CC(/C=C/C(=O)NO)=C\[C@@H](C)C(=O)c1ccc(N(C)C)cc1 [trichostatin, Trichostatin A, reference compound]
Result: 0.082 µM
